compounds and their reported solubility
Conditions: 20 °C

compound: CC1CCC(O)CC1 (stereo not drawn)
solubility (mM): 131
//
compound: CCNc1nc(NC(C)C)nc(OC)n1
solubility (mM): 8.52
//
compound: CC(O)CN(CC(C)O)CC(C)O (stereo not drawn)
solubility (mM): 4340
